Data export: IC50 values recorded with E. coli RNase G (Escherichia coli, UniProt P0A9J0).
Sequence (P0A9J0 whole entry): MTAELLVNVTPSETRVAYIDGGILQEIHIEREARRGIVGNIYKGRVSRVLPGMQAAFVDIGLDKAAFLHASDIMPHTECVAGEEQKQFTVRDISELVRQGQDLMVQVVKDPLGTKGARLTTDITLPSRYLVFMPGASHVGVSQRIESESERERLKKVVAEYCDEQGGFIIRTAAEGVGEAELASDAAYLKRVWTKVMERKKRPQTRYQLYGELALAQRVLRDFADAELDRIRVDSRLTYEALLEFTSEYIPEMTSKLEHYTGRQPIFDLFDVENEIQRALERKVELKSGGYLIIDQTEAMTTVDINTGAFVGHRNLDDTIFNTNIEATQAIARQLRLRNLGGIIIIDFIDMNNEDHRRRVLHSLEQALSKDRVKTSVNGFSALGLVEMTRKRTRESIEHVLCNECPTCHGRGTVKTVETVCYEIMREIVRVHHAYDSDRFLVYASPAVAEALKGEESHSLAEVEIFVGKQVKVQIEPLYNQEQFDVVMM

Some solved cases for reference:
molecule	targetUnderTest	valueObserved
O=C1c2ccccc2NC(c2cc(Cl)cc(Cl)c2O)N1Cc1cccnc1 (stereo not drawn) [M2]	E. coli RNase G (Escherichia coli, UniProt P0A9J0)	> 40 mM
Cc1nnsc1-c1onc(C)c1C(=O)O/N=C/c1cccc(Cl)c1 [M9]	E. coli RNase G (Escherichia coli, UniProt P0A9J0)	~24 mM

Proceeding to the next molecule to report its IC50.
Exercise: Enter recorded IC50 with E. coli RNase G (Escherichia coli, UniProt P0A9J0) for Cc1onc(-c2c(Cl)cccc2Cl)c1C(=O)N=S(C)(C)=O [M3] here.
Solution: > 40 mM
